- assay target: Adenosine kinase (Rattus norvegicus, UniProt Q64640)
- Sequence (Q64640 whole entry): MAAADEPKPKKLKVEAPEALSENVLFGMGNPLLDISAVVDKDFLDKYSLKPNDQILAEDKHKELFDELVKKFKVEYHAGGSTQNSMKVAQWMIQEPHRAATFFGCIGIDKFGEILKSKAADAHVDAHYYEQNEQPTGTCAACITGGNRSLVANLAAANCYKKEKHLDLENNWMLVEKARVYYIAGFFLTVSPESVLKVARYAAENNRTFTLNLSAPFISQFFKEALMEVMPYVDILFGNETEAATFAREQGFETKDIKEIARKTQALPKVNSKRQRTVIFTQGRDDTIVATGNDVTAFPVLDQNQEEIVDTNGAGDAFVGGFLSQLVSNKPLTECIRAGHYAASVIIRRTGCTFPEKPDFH
- assay details: Inhibitory activity against intact cell adenosine kinase by ADO phosphorylation assay
pIC50: −log10 of the molar value.
experimental readout: pIC50

CN(C)c1ccc(-c2cc(-c3cccc(C(N)=O)c3)c3c(N)ncnc3n2)cc1 : 6.07

[a] Nc1ncnc2nc(-c3ccc(N4CCOCC4)nc3)cc(-c3ccco3)c12
[b] CN(C)c1ccc(-c2cc(-c3cccc(Br)c3)c3c(N)ncnc3n2)cc1
Exercise: Name the one with the greater pIC50 value, either a or b as given. Selection: enter the item's label.
Key: b
(b: 6.77, a: 6.31)

---

- assay target: UniProt Q64640
- assay details: Inhibitory activity against intact cell adenosine kinase by ADO phosphorylation assay
experimental readout: IC50 (µM)

[P] Nc1ncnc2nc(-c3ccc(N4CCOCC4)nc3)cc(C3CCCC3)c12
[Q] CN(C)c1ccc(-c2cc(-c3cccc(O)c3)c3c(N)ncnc3n2)cc1
[R] Nc1ncnc2nc(-c3ccc(N4CCOCC4)nc3)cc(Cc3ccccc3Br)c12
Exercise: With the 3 compounds above, produce a list ordered by ascending IC50. Write the labels, ordered according to the request.
Key: R, P, Q
(R: 0.033 µM, P: 0.08 µM, Q: 0.353 µM)

[1] C=CC(C)(C)c1cc(-c2ccc(N3CCOCC3)nc2)nc2ncnc(N)c12
[2] Nc1ncnc2nc(-c3ccc(N4CCOCC4)nc3)cc(-c3ccccc3Br)c12
Exercise: Hi, I'm comparing two records. Which one has the lower IC50, 1 or 2 ? Selection: enter the item's label.
Key: 1
(1: 0.304 µM, 2: 0.675 µM)
